Molecular target: zebrafish HDAC10 (Danio rerio, UniProt F1QCV2)
Sequence (F1QCV2 whole entry): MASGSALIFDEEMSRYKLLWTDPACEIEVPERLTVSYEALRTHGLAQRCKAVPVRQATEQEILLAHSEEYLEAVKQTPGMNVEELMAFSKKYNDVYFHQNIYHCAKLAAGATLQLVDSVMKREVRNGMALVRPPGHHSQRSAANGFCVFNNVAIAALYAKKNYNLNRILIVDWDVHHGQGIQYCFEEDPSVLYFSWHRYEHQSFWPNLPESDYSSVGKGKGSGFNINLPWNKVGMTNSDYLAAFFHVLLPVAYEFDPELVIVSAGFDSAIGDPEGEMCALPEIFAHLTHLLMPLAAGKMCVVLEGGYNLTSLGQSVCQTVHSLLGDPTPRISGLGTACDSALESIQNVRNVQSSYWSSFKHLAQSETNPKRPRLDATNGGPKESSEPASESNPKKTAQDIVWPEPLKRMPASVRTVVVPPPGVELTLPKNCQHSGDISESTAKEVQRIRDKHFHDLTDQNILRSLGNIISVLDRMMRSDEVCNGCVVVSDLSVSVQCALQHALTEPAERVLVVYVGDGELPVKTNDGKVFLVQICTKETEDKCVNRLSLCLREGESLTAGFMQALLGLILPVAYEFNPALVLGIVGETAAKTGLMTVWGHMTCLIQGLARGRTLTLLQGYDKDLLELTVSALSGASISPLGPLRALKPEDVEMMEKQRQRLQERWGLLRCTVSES
Assay: Zebrafish HDAC10 assay (zHDAC10), Ac-spermidine-AMC substrate
Assay type: biochemical
Conditions: at 0.1 μM; read-out: zHDAC10 percent enzyme inhibition
endpoint label: inhibition at 0.1 µM (%)

Field: example entries. Status: answers known.
O=C(NO)C1CCN(CCc2ccc(Br)cc2)CC1 [DH67]	7
O=C(NO)C1CCN(CCCc2ccccc2)CC1 [DH53]	0
O=C(NO)C1CCN(CCc2ccccc2)CC1 [DH22]	13
O=C(NO)C1CCN(Cc2ccccc2)CC1 [DH25]	9
O=C(NO)C1CCN(CC(c2ccccc2)c2ccccc2)CC1 [DH40]	1

I: O=C(NO)C1CCN(CCc2cccc(Br)c2)CC1 [DH71]
II: O=C(NO)C1CCN(Cc2ccc(-c3ccccc3)cc2)CC1 [DH35]
Incoming: Endpoint returns whichever of I and II has the numerically higher inhibition at 0.1 µM. Indicate which entry you chose by stating its label.
Outgoing: II

---

Molecular target: zebrafish HDAC10 (Danio rerio)
Assay: Zebrafish HDAC10 assay (zHDAC10), Ac-spermidine-AMC substrate
Assay type: biochemical
Conditions: at 1 μM; read-out: zHDAC10 percent enzyme inhibition
endpoint label: inhibition at 1 µM (%)

O=C(NO)C1CCN(CC(c2ccccc2)c2ccccc2)CC1	9

a: O=C(NO)C1CCN(CCCc2ccccc2)CC1
b: O=C(NO)C1CCN(CCc2cccc(Br)c2)CC1
Incoming: Which record shows the lower inhibition at 1 µM: the first, a , or the second, b ? Choose, then provide that item's label.
Outgoing: b
(b: 10%, a: 19%)

1: O=C(NO)C1CCN(Cc2ccccc2)CC1
2: O=C(NO)C1CCN(Cc2ccc(-c3ccccc3)cc2)CC1
Incoming: I'm curious whether 1 or 2 has the smaller inhibition at 1 µM number. Which is it? Pick one and reply with its label.
Outgoing: 1
(1: 15%, 2: 24%)

---

Molecular target: HDAC6 (Homo sapiens)
Construct: purchased BPS Bioscience 50006
Test: HDAC6 (ZMAL) fluorogenic activity assay
Type: biochemical
endpoint label: IC50 (µM)
State the answer as a number, implicitly in µM.

Record `O=C(NO)C1CCN(CCNCc2ccc(Br)cc2)CC1` . Reported IC50: 15

---

Entries and their measured HDAC10/6 fold selectivity (BRET) follow.
Target: HDAC10-nanoluciferase fusion in HeLa cells (Homo sapiens)
Assay: BRET intracellular target engagement assay, HDAC10
Settings: HDAC10 over HDAC6, from BRET

Known HDAC10/6 fold selectivity (BRET) results, listed for orientation:
CN(CCCC(=O)NO)CCNC(=O)c1ccc(/C(N)=N/O)cc1	>21 fold
C[N+](C)(CCCC(=O)[N-]O)CCNC(=O)c1ccccc1	>1 fold
O=C(CCCN(CCC(=O)Nc1ccccc1)C1CC1)NO	>110 fold
CCCN(CCCC(=O)NO)CCC(=O)Nc1ccccc1	~366 fold
O=C(CC1CN(CCC(=O)Nc2ccccc2)C1)NO	>20 fold

In the following, a different molecule is considered.
`CC(C)N(CCCC(=O)NO)CCC(=O)Nc1ccccc1` yielded HDAC10/6 fold selectivity (BRET) of >21 fold

---

The entries below are paired with their reported IC50.
Target: HDAC2 (Homo sapiens)
Construct: purchased BPS Bioscience 50002
Sequence (Q92769 whole entry): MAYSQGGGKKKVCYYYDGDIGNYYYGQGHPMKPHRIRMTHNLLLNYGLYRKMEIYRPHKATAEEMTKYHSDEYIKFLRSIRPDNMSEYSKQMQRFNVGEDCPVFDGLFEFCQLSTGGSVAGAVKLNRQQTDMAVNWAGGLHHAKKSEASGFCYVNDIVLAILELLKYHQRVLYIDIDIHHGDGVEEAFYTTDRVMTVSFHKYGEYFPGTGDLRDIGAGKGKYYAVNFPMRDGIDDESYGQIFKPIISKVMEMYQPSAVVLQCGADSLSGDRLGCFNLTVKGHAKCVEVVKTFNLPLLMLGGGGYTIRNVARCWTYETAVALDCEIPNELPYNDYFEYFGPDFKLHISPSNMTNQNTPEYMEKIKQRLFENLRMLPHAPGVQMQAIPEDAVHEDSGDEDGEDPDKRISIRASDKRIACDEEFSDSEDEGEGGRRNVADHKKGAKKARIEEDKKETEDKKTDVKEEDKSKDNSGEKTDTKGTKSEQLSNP
Assay: HDAC-Glo I/II assay, HDAC2
Format: biochemical
Settings: recombinant human HDAC2, HDAC-Glo; read-out: pIC50 HDAC2 Glo (converted)

CC(C)N(CCCC(=O)NO)CCC(=O)Nc1ccccc1	> 200 µM
CN(CCCC(=O)NO)CCNC(=O)c1ccccc1O	> 100 µM
CN(CCCC(=O)NO)CCNC(=O)c1ccc2cn[nH]c2c1	> 100 µM
Cc1[nH]c2ccccc2c1C(=O)NCCN(C)CCCC(=O)NO	> 100 µM
CN(CCCC(=O)NO)CCNC(=O)c1ccc(/C(N)=N/O)cc1	> 100 µM

Switching to the query record.
The reported IC50 of the compound `CN(CCCC(=O)NO)CCNC(=O)c1ccc(O)cc1` was > 100 µM

---

Biological target: TwinStrep-GST-HDAC10 (Homo sapiens)
Construct: made in house; host or cells: Sf21 insect cells (baculovirus, pFastBac1)
Sequence (Q969S8 whole entry): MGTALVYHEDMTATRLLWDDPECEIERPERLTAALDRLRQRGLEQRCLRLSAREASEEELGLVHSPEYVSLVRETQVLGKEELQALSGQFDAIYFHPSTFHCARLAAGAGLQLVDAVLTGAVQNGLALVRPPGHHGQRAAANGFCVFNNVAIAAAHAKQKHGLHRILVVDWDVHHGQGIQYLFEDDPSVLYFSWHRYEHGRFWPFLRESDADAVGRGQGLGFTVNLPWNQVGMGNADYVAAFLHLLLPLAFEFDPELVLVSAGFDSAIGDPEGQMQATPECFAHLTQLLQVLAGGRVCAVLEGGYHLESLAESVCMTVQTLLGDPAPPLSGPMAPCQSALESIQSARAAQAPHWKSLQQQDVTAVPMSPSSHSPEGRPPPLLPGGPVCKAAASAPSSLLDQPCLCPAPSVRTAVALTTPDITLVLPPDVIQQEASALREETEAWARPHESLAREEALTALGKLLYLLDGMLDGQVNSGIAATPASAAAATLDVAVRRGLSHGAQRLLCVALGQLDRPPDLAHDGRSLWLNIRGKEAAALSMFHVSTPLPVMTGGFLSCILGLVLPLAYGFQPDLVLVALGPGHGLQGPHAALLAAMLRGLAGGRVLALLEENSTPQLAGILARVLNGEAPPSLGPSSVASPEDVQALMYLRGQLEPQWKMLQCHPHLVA
Assay: HDAC10 TR-FRET assay (Tubastatin-AF647-Tracer displacement)
Assay type: binding
Conditions: TR-FRET, 60 min at rt; read-out: pIC50 HDAC10 FRET (converted)
endpoint label: IC50 (nM)

I: CN(CCCC(=O)NO)CCNS(=O)(=O)c1ccccc1
II: COc1ccc(C(=O)NCCN(C)CCCC(=O)NO)c2ccccc12
Incoming: Of the two listed items, which has the higher IC50? First: I Second: II Identify your selection by its label.
Outgoing: I
(I: 31.6 nM, II: 3.16 nM)

---

Target: HDAC6 (Homo sapiens, UniProt Q9UBN7)
Construct: purchased BPS Bioscience 50006
Sequence (Q9UBN7 whole entry): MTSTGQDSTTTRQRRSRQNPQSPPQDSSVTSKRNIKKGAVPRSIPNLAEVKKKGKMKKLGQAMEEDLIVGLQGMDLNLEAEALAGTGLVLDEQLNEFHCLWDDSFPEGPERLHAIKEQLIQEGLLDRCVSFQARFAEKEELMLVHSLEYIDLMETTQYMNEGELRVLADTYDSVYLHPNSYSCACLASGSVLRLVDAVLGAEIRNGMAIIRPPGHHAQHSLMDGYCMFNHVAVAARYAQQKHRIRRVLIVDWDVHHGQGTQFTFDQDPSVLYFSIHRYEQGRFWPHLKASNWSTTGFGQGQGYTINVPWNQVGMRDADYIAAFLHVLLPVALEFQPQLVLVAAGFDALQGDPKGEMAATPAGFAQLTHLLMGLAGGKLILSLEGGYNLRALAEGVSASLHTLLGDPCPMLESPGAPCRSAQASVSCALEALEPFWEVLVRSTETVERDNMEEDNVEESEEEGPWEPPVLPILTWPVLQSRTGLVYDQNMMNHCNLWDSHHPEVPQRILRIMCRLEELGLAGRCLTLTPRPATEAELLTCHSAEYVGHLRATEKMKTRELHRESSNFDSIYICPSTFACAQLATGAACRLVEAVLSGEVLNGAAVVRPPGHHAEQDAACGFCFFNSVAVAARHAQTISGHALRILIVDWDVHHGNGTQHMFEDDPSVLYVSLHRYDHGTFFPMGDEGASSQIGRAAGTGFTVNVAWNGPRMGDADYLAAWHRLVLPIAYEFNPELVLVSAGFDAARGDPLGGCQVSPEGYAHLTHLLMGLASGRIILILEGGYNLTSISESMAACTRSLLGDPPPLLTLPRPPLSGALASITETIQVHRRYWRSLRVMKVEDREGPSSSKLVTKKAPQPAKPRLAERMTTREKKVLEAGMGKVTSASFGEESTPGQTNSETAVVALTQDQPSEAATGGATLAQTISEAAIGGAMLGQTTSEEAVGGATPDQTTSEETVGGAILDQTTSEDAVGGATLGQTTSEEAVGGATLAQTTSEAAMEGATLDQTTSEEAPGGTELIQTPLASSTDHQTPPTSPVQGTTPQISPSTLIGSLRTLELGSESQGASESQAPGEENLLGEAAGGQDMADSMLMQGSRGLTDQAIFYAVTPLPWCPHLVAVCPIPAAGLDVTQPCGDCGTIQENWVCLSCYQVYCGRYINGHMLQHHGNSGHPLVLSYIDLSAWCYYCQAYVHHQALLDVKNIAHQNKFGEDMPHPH
Assay: HDAC6 (ZMAL) fluorogenic activity assay
Type: biochemical
Conditions: at 1 μM; read-out: HDAC6 (ZMAL) percent enzyme inhibition
endpoint label: inhibition at 1 µM (%)

O=C(NO)C1CCN(CCc2ccccc2)CC1 [DH22]	-2

a: O=C(NO)C1CCN(Cc2ccccc2)CC1 [DH25]
b: O=C(NO)C1CCN(CCNCc2ccccc2)CC1 [DH79]
c: O=C(NO)C1CCN(CCCc2ccccc2)CC1 [DH53]
Incoming: Sort low-to-high on inhibition at 1 µM, please. Give the order by naming the labels one after another as requested.
Outgoing: c, b, a
(c: -23%, b: -15%, a: 22%)

---

Target: HDAC6 (Homo sapiens, UniProt Q9UBN7)
Construct: purchased BPS Bioscience 50006
Assay: HDAC-Glo I/II assay, HDAC6
Type: biochemical
Settings: recombinant human HDAC6, HDAC-Glo; read-out: pIC50 HDAC6 Glo (converted)
endpoint label: IC50 (µM)

CN(CCCC(=O)NO)CCCc1nc2ccccc2[nH]1 [DKFZ-805]	12.6
Cc1[nH]c2ccccc2c1CC(=O)NCCN(C)CCCC(=O)NO [DKFZ-749]	3.16
O=C(CCCN(CCC(=O)Nc1ccccc1)C1CC1)NO [DKFZ-724]	3.16

a: CN(CCCC(=O)NO)CCNC(=O)c1ccc(O)c2ccccc12 [DKFZ-776]
b: CN(CCCC(=O)NO)CCc1nc2ccccc2[nH]1 [DKFZ-773]
Incoming: Which value of IC50 is greater, the one for a or the one for b ? Choose, then provide that item's label.
Outgoing: b

a: Cc1[nH]c2ccccc2c1C(=O)NCCN(C)CCCC(=O)NO [DKFZ-756]
b: CN(CCCC(=O)NO)CCNC(=O)c1cccc2cn[nH]c12 [DKFZ-757]
Incoming: Hello, I am sorting some records. Could you say if a or b has the smaller IC50 value? Response format: the label of the selected entry.
Outgoing: a
(a: 1.58 µM, b: 6.31 µM)

---

Molecular target: TwinStrep-GST-HDAC10 (Homo sapiens)
Construct: made in house; host or cells: Sf21 insect cells (baculovirus, pFastBac1)
Test: HDAC10 TR-FRET assay (Tubastatin-AF647-Tracer displacement)
Assay type: binding
Conditions: TR-FRET, 60 min at rt; read-out: pIC50 HDAC10 FRET (converted)
endpoint label: IC50 (nM)

CN(CCCC(=O)NO)CCNC(=O)c1ccc(O)cc1	7.94

A: CN(CCCC(=O)NO)CCNC(=O)c1ccccc1O
B: CCCCN(CCCC(=O)NO)CCC(=O)Nc1ccccc1
C: CN(CCCC(=O)NO)CCCc1nc2ccccc2[nH]1
Incoming: Sort ascending by IC50. Note for the reader: the ranking is given by listing the labels in the order requested.
Outgoing: C, A, B

---

Target: HDAC1 (Homo sapiens, UniProt Q13547)
Construct: purchased BPS Bioscience 50051
Sequence (Q13547 whole entry): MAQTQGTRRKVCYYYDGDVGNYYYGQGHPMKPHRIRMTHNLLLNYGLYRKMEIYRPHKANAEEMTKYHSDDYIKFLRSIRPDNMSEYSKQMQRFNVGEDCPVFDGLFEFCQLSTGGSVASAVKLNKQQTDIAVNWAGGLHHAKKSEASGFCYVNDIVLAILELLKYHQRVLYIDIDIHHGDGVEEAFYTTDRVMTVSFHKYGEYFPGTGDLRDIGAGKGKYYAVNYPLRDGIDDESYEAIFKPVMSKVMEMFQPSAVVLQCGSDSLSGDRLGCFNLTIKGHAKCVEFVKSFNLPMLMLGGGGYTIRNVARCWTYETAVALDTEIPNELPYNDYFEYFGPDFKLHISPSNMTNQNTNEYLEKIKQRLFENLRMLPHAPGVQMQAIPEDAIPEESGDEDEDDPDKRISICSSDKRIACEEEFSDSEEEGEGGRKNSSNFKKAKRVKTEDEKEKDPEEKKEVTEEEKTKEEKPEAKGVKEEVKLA
Experiment: HDAC1 (ZMAL) fluorogenic activity assay
Assay type: biochemical
Details: at 1 μM; read-out: HDAC1 (ZMAL) percent enzyme inhibition
endpoint label: inhibition at 1 µM (%)

O=C(NO)C1CCN(CCNCc2ccccc2)CC1	6
O=C(NO)C1CCN(CCc2ccc(Br)cc2)CC1	7
O=C(NO)C1CCN(CCc2ccccc2)CC1	-1

---

Target: HDAC6 (2nd catalytic domain)-nanoluciferase fusion in HeLa cells (Homo sapiens, UniProt Q9UBN7)
Test: BRET intracellular target engagement assay, HDAC6
pIC50: −log10 of the molar value.
endpoint label: pIC50

O=C(CCCN(CCC(=O)Nc1ccccc1)C1CC1)NO [DKFZ-724]	< 4.40
COc1ccc(C(=O)NCCN(C)CCCC(=O)NO)c2ccccc12 [DKFZ-774]	~4.90
CN(CCCC(=O)NO)CCCC(=O)Nc1ccccc1 [DKFZ-775]	< 4.40

pIC50 for CC(C)N(CCCC(=O)NO)CCC(=O)Nc1ccccc1 [DKFZ-715] is < 4.40

---

Target: HDAC3/NcoR2 complex (Homo sapiens)
Construct: purchased BPS Bioscience 50003
Sequence (O15379 whole entry): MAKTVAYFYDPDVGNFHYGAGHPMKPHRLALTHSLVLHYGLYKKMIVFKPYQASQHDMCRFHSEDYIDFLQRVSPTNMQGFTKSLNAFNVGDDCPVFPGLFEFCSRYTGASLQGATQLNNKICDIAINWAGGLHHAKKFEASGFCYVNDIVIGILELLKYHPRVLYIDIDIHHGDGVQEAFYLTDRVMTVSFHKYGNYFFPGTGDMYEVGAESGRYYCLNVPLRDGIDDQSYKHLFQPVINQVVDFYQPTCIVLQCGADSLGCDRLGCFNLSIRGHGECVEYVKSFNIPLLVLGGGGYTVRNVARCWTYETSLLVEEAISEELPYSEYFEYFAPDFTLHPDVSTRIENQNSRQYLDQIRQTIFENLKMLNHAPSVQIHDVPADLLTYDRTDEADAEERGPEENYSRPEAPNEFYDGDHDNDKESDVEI
Sequence (Q9Y618 395-489 partner limits assumed): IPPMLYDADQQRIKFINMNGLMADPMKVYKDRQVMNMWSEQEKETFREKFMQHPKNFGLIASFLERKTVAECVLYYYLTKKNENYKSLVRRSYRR
Assay: HDAC-Glo I/II assay, HDAC3/NcoR2 complex
Format: biochemical
Settings: recombinant human HDAC3/NcoR2 complex, read-out: pIC50 HDAC3 Glo (converted)
Listing of recorded IC50 by entry.

Here are 3 molecules together with their reported answers.
CCCN(CCCC(=O)NO)CCC(=O)Nc1ccccc1	~200 µM
CN(CCCC(=O)NO)CCc1nc2ccccc2[nH]1	> 100 µM
O=C(CCCN(CCC(=O)Nc1ccccc1)Cc1ccccc1)NO	~100 µM

Sample `CN(CCCC(=O)NO)CCNS(=O)(=O)c1ccccc1` , system: HDAC3/NcoR2 complex (Homo sapiens). Its IC50 is > 100 µM

Form: item `Cc1[nH]c2ccccc2c1CC(=O)NCCN(C)CCCC(=O)NO` ; test system HDAC3/NcoR2 complex (Homo sapiens); IC50: > 100 µM

Per the reported HDAC3/NcoR2 complex (Homo sapiens) data, `COc1ccc(C(=O)NCCN(C)CCCC(=O)NO)c2ccccc12` has IC50 of > 100 µM

Record `O=C(CC1CN(CCC(=O)Nc2ccccc2)C1)NO` ; system HDAC3/NcoR2 complex (Homo sapiens); IC50 = > 100 µM

Record `CN(CCCC(=O)NO)CCNC(=O)c1cccc2cn[nH]c12` has HDAC3/NcoR2 complex (Homo sapiens) IC50 equal to > 100 µM

Values compiled from patent US20220151962A1.
